Tgt: EphA8 (Homo sapiens (Human), UniProt P29322)
Sequence (P29322 28-1005): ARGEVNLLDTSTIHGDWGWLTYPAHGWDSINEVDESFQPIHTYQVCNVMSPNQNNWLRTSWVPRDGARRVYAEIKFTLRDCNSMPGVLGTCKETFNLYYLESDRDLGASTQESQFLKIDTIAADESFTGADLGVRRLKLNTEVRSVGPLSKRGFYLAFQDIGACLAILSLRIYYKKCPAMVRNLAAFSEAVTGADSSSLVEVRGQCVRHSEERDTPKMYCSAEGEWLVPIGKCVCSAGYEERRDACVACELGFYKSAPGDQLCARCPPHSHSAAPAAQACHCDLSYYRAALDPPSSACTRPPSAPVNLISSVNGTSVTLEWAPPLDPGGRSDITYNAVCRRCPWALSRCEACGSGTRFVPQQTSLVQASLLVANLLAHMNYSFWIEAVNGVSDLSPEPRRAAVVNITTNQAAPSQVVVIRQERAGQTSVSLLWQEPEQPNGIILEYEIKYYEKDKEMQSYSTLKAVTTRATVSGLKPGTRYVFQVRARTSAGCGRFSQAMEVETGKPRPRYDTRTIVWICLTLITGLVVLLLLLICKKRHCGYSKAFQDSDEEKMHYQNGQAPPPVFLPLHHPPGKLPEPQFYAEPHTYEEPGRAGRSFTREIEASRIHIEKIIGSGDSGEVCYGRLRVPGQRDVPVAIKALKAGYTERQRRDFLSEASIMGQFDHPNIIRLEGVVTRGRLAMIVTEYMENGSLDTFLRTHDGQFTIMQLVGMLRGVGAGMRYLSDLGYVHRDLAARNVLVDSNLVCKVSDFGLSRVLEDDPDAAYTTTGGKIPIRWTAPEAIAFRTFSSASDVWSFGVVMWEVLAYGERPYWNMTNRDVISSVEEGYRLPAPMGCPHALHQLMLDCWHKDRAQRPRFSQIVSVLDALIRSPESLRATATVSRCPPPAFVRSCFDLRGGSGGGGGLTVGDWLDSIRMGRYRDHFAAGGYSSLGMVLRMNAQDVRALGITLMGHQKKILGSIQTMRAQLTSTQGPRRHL
Test: KinaseProfiler off-target kinase profiling
Type: biochemical
Test Conditions: 10 μM, ATP near Km
Assay Metric: Avg. POC (POC)
// return numeric value only (unit: POC, not printed)

Molecule | Avg. POC, POC
COCc1ccc2c(c1)C(NC(=O)Nc1c(C)c(-c3cnn(C)c3)nn1-c1ccccc1)COC2 (stereo not shown) | 109
Cc1c(-c2ccc(=O)n(C)c2)nn(-c2ccccc2)c1NC(=O)NC1CN(CC(F)(F)F)Cc2ccccc21 (stereo not shown) | 118.5
Cc1c(-c2cnn(C)c2)nn(-c2ccccc2)c1NC(=O)NC1CCOc2cc(F)ccc21 (stereo not shown) | 122.5

Consider the additional molecule presented here.
INPUT: Which value of Avg. POC has been reported for Cc1c(-c2cnn(C)c2)nn(-c2ccccc2)c1NC(=O)N[C@H]1CCCc2ccccc21 in the records?
OUTPUT: 128.5

Data provenance: patent US10351575B2
